Reported pIC50 values follow for various molecules
system-tested: Matrix metalloproteinase-15 (Homo sapiens)
Sequence (P51511 whole entry): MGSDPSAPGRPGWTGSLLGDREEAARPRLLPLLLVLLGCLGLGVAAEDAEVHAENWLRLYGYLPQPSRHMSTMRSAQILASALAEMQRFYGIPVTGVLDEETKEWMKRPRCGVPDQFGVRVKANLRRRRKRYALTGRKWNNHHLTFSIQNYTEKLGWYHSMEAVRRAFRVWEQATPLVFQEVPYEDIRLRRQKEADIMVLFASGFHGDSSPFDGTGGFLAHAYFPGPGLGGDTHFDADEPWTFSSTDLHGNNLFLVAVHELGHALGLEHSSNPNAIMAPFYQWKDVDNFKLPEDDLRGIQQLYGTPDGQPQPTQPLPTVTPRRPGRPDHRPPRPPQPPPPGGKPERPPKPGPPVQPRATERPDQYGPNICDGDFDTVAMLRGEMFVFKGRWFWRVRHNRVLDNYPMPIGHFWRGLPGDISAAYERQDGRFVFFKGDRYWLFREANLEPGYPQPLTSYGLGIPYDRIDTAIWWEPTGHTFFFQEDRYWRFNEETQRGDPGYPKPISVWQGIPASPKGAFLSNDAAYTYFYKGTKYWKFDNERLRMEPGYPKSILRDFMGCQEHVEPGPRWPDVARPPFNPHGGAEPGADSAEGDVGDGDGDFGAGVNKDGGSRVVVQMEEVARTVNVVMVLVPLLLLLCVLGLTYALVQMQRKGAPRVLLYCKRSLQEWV
Worth noting: pIC50 values are minus log10 of concentrations stated in mol/L.

A selection of reference data follows.
>>> numeric_readout("Cc1ccc(S(=O)(=O)N2CCc3cc(O)ccc3C2C(=O)NO)cc1 (stereo unspecified)")
7.72
>>> numeric_readout("COc1cc2c(cc1O)CCN(S(=O)(=O)c1ccccc1)C2C(=O)NO (stereo unspecified)")
7.54
>>> numeric_readout("COc1ccc(S(=O)(=O)N2CCc3cc(OCc4ccccc4)ccc3C2C(=O)NO)cc1 (stereo unspecified)")
8.40

Query O=C(NO)C1c2ccc(O)cc2CCN1S(=O)(=O)c1ccc([N+](=O)[O-])cc1 (stereo unspecified) on Matrix metalloproteinase-15 (Homo sapiens); pIC50 returned: 6.90

Measured on Matrix metalloproteinase-15 (Homo sapiens), O=C(NO)C1c2ccc(OCc3ccccc3)cc2CCN1S(=O)(=O)c1ccccc1 (stereo unspecified) has a documented pIC50 of 7.77

Record O=C(NO)C1c2ccc(OCc3ccccc3)cc2CCN1S(=O)(=O)c1cc(Cl)ccc1Cl (stereo unspecified) ; system Matrix metalloproteinase-15 (Homo sapiens); pIC50 = 5.14

Sample COc1ccc(S(=O)(=O)N2CCc3cc(O)c(OC)cc3C2C(=O)NO)cc1 (stereo unspecified) , system: Matrix metalloproteinase-15 (Homo sapiens). Its pIC50 is 8.22

The recorded pIC50 with Matrix metalloproteinase-15 (Homo sapiens) for Nc1ccc(S(=O)(=O)N2CCc3cc(O)ccc3C2C(=O)NO)cc1 (stereo unspecified) was 6.41

---

Record: IC50 reported on Matrix metalloproteinase-9 (Homo sapiens, UniProt P14780).
Sequence (P14780 whole entry): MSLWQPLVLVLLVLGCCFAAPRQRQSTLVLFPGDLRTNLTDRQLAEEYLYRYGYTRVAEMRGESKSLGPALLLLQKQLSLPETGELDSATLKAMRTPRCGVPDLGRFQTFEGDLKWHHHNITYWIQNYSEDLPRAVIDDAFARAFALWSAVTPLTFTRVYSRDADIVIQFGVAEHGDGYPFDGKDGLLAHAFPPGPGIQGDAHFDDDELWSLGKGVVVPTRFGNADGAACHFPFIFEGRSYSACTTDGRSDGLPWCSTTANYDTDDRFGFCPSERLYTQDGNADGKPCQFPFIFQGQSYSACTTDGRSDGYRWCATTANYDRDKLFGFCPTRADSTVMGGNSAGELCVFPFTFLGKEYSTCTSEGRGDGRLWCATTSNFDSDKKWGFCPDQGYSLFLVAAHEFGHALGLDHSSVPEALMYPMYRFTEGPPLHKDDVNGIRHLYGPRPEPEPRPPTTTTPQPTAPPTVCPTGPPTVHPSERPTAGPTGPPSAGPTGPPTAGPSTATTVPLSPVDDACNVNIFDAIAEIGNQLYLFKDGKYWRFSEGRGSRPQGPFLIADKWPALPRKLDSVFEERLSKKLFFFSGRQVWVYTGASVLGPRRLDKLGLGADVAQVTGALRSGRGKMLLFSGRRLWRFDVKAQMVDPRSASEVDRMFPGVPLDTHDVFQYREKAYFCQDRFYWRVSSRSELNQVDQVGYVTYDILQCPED
Field: numeric (nM). Do not append units.

Answered examples (3):
>>> numeric_readout("O=C(NO)C1c2ccc(OCc3ccccc3)cc2CCN1S(=O)(=O)c1ccccc1 (centres undefined)")
35
>>> numeric_readout("Nc1ccc(S(=O)(=O)N2CCc3cc(O)ccc3C2C(=O)NO)cc1 (centres undefined)")
248
>>> numeric_readout("COc1cc2c(cc1O)CCN(S(=O)(=O)c1ccccc1)C2C(=O)NO (centres undefined)")
100

Lab note: next compound to report on.
Here Cc1ccc(S(=O)(=O)N2CCc3cc(OCc4ccccc4)ccc3C2C(=O)NO)cc1 (centres undefined) was tested on Matrix metalloproteinase-9 (Homo sapiens, UniProt P14780), and its IC50 came to 130

---

system-tested: Matrix metalloproteinase-26 (Homo sapiens, UniProt Q9NRE1)
Sequence (Q9NRE1 whole entry): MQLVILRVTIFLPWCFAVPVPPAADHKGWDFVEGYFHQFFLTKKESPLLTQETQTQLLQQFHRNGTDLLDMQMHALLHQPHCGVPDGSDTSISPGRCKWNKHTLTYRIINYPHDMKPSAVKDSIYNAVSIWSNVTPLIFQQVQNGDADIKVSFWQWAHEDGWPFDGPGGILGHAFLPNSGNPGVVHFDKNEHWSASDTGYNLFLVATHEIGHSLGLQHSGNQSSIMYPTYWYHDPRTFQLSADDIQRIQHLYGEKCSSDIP
method: Inhibition of matrix metalloprotease-26 (MMP-26)
test-readout: IC50 (nM)
// units = nM; emit number, no label

>>> numeric_readout("COc1cc2c(cc1O)CCN(S(=O)(=O)c1ccccc1)C2C(=O)NO (centres undefined)")
146
>>> numeric_readout("CNC(=O)[C@H](Cc1c[nH]c2ccccc12)NC(=O)[C@@H](CC(=O)NO)CC(C)C")
17
>>> numeric_readout("COc1ccc(S(=O)(=O)N2CCc3cc(O)ccc3C2C(=O)NO)cc1 (centres undefined)")
7510

Consider now this further compound.
The recorded IC50 for O=C(NO)C1c2ccc(O)cc2CCN1S(=O)(=O)c1ccc([N+](=O)[O-])cc1 (centres undefined) is 791
